# assay target: ROCK2 (Homo sapiens (Human), UniProt O75116)
# Sequence (O75116 whole entry, species assumed): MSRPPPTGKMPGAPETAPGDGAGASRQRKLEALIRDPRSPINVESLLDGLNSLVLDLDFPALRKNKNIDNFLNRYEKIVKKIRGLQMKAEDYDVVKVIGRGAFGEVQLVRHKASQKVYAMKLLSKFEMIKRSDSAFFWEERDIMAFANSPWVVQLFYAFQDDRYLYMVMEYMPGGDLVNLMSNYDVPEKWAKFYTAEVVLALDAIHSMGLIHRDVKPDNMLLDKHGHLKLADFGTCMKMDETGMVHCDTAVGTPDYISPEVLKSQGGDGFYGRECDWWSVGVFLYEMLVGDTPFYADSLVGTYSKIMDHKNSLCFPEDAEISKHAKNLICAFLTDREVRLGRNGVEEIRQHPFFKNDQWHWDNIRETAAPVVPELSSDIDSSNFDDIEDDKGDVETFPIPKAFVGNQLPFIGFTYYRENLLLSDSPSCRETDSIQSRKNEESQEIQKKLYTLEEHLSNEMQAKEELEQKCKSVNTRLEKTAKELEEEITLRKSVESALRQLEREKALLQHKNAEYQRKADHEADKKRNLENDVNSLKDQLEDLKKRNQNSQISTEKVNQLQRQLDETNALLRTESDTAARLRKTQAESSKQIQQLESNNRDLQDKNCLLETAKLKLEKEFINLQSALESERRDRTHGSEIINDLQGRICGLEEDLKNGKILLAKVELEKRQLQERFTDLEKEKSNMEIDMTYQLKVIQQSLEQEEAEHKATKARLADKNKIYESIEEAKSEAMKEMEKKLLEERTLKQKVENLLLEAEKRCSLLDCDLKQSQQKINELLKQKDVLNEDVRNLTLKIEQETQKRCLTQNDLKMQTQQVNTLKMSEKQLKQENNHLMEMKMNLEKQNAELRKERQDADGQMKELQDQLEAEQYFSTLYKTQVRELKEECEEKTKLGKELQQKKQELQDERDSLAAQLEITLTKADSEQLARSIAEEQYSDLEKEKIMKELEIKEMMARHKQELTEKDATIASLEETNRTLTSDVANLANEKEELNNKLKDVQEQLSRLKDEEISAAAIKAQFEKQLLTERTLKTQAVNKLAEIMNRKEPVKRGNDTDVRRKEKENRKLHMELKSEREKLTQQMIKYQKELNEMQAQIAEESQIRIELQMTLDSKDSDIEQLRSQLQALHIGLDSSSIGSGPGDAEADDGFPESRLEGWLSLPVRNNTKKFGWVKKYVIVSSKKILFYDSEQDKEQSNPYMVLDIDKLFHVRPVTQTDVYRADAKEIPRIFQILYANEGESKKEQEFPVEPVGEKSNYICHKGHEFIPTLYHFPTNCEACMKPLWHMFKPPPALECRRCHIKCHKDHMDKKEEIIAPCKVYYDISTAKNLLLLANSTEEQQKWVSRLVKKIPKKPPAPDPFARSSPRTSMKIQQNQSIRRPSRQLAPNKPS
# method description: ROCK assay (peptide substrate phosphorylation, LABCHIP 3000 Reader)
# Type: biochemical
# recorded conditions: 5 μM ATP, 1.5 μM peptide substrate
Please note: IC50 exactly at 60 nM is not met. Only values below 60 nM get met.

Ask: Problem: For the compound COc1cc(C(=O)N2CC(O)C[C@@H]2c2ccc3cn[nH]c3c2)ccc1-c1cn[nH]c1 (some centres unmarked) , is IC50 under 60 nM?
Result: met

Ask: Problem: For the compound COc1cccc(C2CCCN2C(=O)c2ccc(-c3ccnc4[nH]ccc34)c(OC)c2)c1 (centres unmarked) , is IC50 under 60 nM?
Result: met

Ask: Problem: For the compound COc1cc(C(=O)N2CC(O)C[C@@H]2c2cccc(C(=O)NC3(C)CC3)c2)ccc1-c1cn[nH]c1 (some centres unmarked) , is IC50 under 60 nM?
Result: met

Ask: Problem: For the compound COc1cc(C(=O)N2CCC[C@@H]2C(=O)Nc2ccccc2)ccc1-c1cn[nH]c1 , is IC50 under 60 nM?
Result: not met

Ask: Problem: For the compound N#Cc1cc(C(=O)N2C[C@H](O)C[C@@H]2c2ccccc2F)ccc1-c1cn[nH]c1 , is IC50 under 60 nM?
Result: not met

----------
# assay target: ROCK2 (Homo sapiens (Human), UniProt O75116)
# method description: ROCK assay (peptide substrate phosphorylation, LABCHIP 3000 Reader)
# Type: biochemical
# recorded conditions: 5 μM ATP, 1.5 μM peptide substrate
Provide the recorded pIC50 for the entries that follow.
A value of pIC50 is the negative decimal logarithm of a concentration given in moles per litre.

// sample COc1cc(C(=O)N2CCCC2c2cccc(NC3CCN(C)CC3)c2)ccc1-c1cn[nH]c1 (stereo not drawn) , its pIC50 was 6.56

// sample CCc1cc(C(=O)N2CC(O)C[C@@H]2c2ccccc2F)ccc1-c1cn[nH]c1 (stereo partly drawn) , its pIC50 was 7.19

// sample COc1cc(C(=O)N[C@@H]2CNC[C@H]2c2ccccc2)ccc1-c1cn[nH]c1 [Example 69] , its pIC50 was 8.44

// sample COc1cccc(C2CCCN2C(=O)c2ccc(-c3cn[nH]c3)c(OC)c2)c1 (stereo not drawn) [Example 4] , its pIC50 was 7.50

// sample COc1cc(C(=O)N2CC(O)C[C@@H]2c2cccc(C(=O)NCc3ncco3)c2)ccc1-c1cn[nH]c1 (stereo partly drawn) , its pIC50 was 8.60

// sample O=C(c1ccc(-c2cn[nH]c2)c(OC(F)F)c1)N1C[C@H](O)C[C@@H]1c1ccccc1F , its pIC50 was 7.13

// sample COc1cc(C(=O)N2CCCC2c2ccccc2OC)ccc1-c1cn[nH]c1 (stereo not drawn) , its pIC50 was 6.29

// sample COc1cc(C(=O)N2CC(O)C[C@@H]2c2cccc(C(=O)NCc3cc(F)cc(C(F)(F)F)c3)c2)ccc1-c1cn[nH]c1 (stereo partly drawn) , its pIC50 was 8.36

// sample COc1cc(C(=O)N2CC(OC)C[C@@H]2c2cccc(C(=O)NCC3CC3)c2)ccc1-c1cn[nH]c1 (stereo partly drawn) , its pIC50 was 8.27

// sample COc1cc(C(=O)N2CCNCC2c2ccccc2)ccc1-c1cn[nH]c1 (stereo not drawn) , its pIC50 was 7.22

// sample COc1cc(C(=O)N[C@@H]2CNC[C@H]2c2ccccc2)ccc1-c1cn[nH]c1 (racemic) [Example 70] , its pIC50 was 8.89

// sample COc1cc(C(=O)N2CC(O)C[C@@H]2c2cccc(C(=O)NCc3cc(C)on3)c2)ccc1-c1cn[nH]c1 (stereo partly drawn) , its pIC50 was 8.74

// sample COc1cccc(C2CCCN2C(=O)c2ccc(-c3cn[nH]c3)c(C(C)O)c2)c1 (stereo not drawn) , its pIC50 was 6.64

// sample COC(=O)c1cccc([C@H]2CCCN2C(=O)c2ccc(-c3cn[nH]c3)c(OC)c2)c1 , its pIC50 was 8.23

// sample COc1cc(C(=O)N2CC(O)C[C@@H]2c2cccc(C(=O)NCC(F)F)c2)ccc1-c1cn[nH]c1 (stereo partly drawn) , its pIC50 was 8.39

These entries and their values trace back to patent US10112939B2.
